- experimental target: human OT7T175 (metastin receptor) (human, UniProt Q969F8 1-398)
- Sequence (Q969F8 whole entry L364H): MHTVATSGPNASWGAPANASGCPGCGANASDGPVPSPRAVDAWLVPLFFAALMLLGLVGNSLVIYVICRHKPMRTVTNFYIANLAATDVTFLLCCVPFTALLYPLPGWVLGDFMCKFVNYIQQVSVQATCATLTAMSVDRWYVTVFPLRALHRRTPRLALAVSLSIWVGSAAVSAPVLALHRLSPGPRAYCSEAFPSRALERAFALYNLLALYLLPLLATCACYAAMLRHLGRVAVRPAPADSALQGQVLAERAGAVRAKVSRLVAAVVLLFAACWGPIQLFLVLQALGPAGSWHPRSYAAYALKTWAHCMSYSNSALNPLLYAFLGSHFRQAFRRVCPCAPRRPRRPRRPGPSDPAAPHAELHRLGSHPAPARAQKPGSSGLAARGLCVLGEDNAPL
- assay info: cell-based or functional assay
Square brackets hold non-standard residues; d marks the D form. Ends that are not written are not given here. Phe(3-Cl) = N[C@@H](Cc1cccc(Cl)c1)C(=O)O; Phe(2-Cl) = N[C@@H](Cc1ccccc1Cl)C(=O)O; 2Nal = N[C@@H](Cc1ccc2ccccc2c1)C(=O)O; Arg(Me) = CNC(=N)NCCC[C@H](N)C(=O)O; 4Pal = N[C@@H](Cc1ccncc1)C(=O)O; d3Pal = N[C@H](Cc1cccnc1)C(=O)O; azaGly = NNC(=O)O
Measured intracellular Ca ion level-increasing activity (FLIPR) accompanies every entry in the list below.

Solved cases (3 shown):
>  <binder>
[dY]N[4Pal]NSF[azaGly]L[Arg(Me)]F-NH2 [Compound No. 286: [D-Tyr1,Pya(4) 3,AzaGly7,Arg(Me)9]MS10]

>  <assay value>
2 specific activity to metastin (1-54)

$$$$
>  <binder>
[dY]FNSF[azaGly]L[Arg(Me)]F-NH2 [Compound No. 254: des(1)-[D-Tyr2,Phe3,AzaGly7,Arg(Me)9]MS10]

>  <assay value>
1 specific activity to metastin (1-54)

$$$$
>  <binder>
[d3Pal]NWNSF[azaGly]L[Arg(Me)]F-NH2 (N-terminus assumed; SMILES CNC(=N)NCCC[C@H](NC(=O)[C@H](CC(C)C)NC(=O)NNC(=O)[C@H](Cc1ccccc1)NC(=O)[C@H](CO)NC(=O)[C@H](CC(N)=O)NC(=O)[C@H](Cc1c[nH]c2ccccc12)NC(=O)[C@H](CC(N)=O)NC(=O)[C@H](N)Cc1cccnc1)C(=O)N[C@@H](Cc1ccccc1)C(N)=O) [Compound No. 258: [D-Pya(3)1,AzaGly7,Arg(Me)9]MS10]

>  <assay value>
2 specific activity to metastin (1-54)

$$$$

Consider [dY][2Nal]NSF[azaGly]L[Arg(Me)]F-NH2 [Compound No. 255: des(1)-[D-Tyr2,Nal(2) 3,AzaGly7,Arg(Me)9]MS10] . Its measured intracellular Ca ion level-increasing activity (FLIPR) is 1 specific activity to metastin (1-54)

Consider [dY]N[Phe(2-Cl)]NSF[azaGly]L[Arg(Me)]F-NH2 [Compound No. 247: [D-Tyr1,Phe(2CL) 3,AzaGly7,Arg(Me)9]MS10] . Its measured intracellular Ca ion level-increasing activity (FLIPR) is 1 specific activity to metastin (1-54)

Consider [dY]N[Phe(3-Cl)]NSF[azaGly]L[Arg(Me)]F-NH2 (N-terminus assumed; SMILES CNC(=N)NCCC[C@H](NC(=O)[C@H](CC(C)C)NC(=O)NNC(=O)[C@H](Cc1ccccc1)NC(=O)[C@H](CO)NC(=O)[C@H](CC(N)=O)NC(=O)[C@H](Cc1cccc(Cl)c1)NC(=O)[C@H](CC(N)=O)NC(=O)[C@H](N)Cc1ccc(O)cc1)C(=O)N[C@@H](Cc1ccccc1)C(N)=O) [Compound No. 248: [D-Tyr1,Phe(3Cl) 3,AzaGly7,Arg(Me)9]MS10] . Its measured intracellular Ca ion level-increasing activity (FLIPR) is 2 specific activity to metastin (1-54)
